ASSAY_TARGET: KDR kinase (Homo sapiens)
Construct: purchased Carna 08-191
Sequence (P35968 20-1356): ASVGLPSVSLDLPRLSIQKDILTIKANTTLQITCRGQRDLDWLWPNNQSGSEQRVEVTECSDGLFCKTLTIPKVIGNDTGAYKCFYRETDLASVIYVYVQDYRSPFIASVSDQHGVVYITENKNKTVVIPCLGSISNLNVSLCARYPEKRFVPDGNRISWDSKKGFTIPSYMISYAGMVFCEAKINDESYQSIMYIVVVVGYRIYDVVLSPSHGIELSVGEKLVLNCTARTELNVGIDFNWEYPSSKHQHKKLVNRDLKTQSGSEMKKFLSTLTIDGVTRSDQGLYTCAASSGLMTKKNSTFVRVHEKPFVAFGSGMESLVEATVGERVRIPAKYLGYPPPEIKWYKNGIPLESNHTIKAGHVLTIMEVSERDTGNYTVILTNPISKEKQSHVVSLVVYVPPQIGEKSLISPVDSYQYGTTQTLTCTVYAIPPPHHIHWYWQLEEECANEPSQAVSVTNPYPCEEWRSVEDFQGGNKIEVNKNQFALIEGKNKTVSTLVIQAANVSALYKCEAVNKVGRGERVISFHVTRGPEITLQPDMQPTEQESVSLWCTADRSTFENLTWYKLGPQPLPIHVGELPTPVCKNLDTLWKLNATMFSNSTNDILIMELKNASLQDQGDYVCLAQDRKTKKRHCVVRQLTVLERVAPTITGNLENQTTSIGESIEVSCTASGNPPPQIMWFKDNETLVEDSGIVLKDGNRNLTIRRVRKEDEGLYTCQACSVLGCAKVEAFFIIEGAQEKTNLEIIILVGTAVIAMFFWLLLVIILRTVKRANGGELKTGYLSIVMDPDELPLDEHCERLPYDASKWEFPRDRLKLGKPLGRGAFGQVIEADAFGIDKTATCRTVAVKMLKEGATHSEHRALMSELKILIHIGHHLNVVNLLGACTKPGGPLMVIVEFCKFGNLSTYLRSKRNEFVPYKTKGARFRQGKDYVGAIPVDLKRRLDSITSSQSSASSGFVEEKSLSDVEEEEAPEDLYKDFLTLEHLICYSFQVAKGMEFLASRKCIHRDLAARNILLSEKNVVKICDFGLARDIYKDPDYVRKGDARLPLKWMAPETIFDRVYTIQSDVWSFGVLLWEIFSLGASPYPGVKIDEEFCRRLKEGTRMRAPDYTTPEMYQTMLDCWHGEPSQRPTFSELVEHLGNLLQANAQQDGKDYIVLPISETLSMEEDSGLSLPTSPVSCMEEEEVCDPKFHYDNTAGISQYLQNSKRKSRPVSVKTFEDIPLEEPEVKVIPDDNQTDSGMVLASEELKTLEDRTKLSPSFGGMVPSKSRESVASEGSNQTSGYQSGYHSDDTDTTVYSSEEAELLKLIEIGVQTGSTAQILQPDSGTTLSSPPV
PROCEDURE_SUMMARY: HTRF kinase activity inhibition, KDR
Format: biochemical
CONDITION_LABEL: KDR IC50 / RET IC50
Entry flag: 1 if Ratio (KDR/RET) reaches 30; 0 if it does not.

Consider the following illustrative entries.
In: Assess whether reported Ratio (KDR/RET) for CC1(O)CN(c2cc(-c3ccc(N4CCC(C)(NC(=O)c5ncccc5Cl)CC4)nc3)c3c(C#N)cnn3c2)C1 sits at 30 or higher.
Out: 0

In: Let us now turn to CC1(C#N)CN(c2cc(-c3ccc(N4CCC(C)(NC(=O)c5ncccc5Cl)CC4)nc3)c3c(C#N)cnn3c2)C1
Out: 0

In: Let us now turn to COc1ccc(CN2C3CC2CN(c2ccc(-c4cc(OCC56CC(C#N)(C5)C6)cn5ncc(C#N)c45)cn2)C3)cn1
Out: 0

In: Let us now turn to COc1ccc(CN2C3CC2CN(c2ccc(-c4cc(N5CC6(C5)CC(C)(O)C6)cn5ncc(C#N)c45)cn2)C3)cn1
Out: 0

In: Let us now turn to CNC(=O)C12CC(COc3cc(-c4ccc(N5CC6CC(C5)N6Cc5ccc(OC)nc5)nc4)c4c(C#N)cnn4c3)(C1)C2
Out: 0

In: Let us now turn to COc1ccc(CN2C3CC2CN(c2ccc(-c4cc(N5CCC(C)(O)CC5)cn5ncc(C#N)c45)cn2)C3)cn1
Out: 0

In: Let us now turn to C#C[C@@](C)(O)COc1cc(-c2ccc(N3CC4CC(C3)N4Cc3ccc(OC)nc3)nc2)c2c(C#N)cnn2c1
Out: 1

In: Let us now turn to COc1ccc(CN2C3CC2CN(c2ccc(-c4cc(OCCCS(C)(=N)=O)cn5ncc(C#N)c45)cn2)C3)cn1 (centres unmarked)
Out: 1

In: Let us now turn to COc1ccc(CN2C3CC2CN(c2ccc(-c4cc(N5CC(C)(C#N)C5)cn5ncc(C#N)c45)cn2)C3)cn1
Out: 0

In: Let us now turn to CC1(NC(=O)c2ncccc2Cl)CCN(c2ccc(-c3cc(N4CC(C(C)(C)O)C4)cn4ncc(C#N)c34)cn2)CC1
Out: 1

New cases:
In: Assess whether reported Ratio (KDR/RET) for COc1ccc(CN2C3CC2CN(c2ccc(-c4cc(C#C[C@@H](C)O)cn5ncc(C#N)c45)cn2)C3)cn1 sits at 30 or higher.
Out: 1

In: Let us now turn to CC(C)(O)C#Cc1cc(-c2ccc(N3CCC(C)(NC(=O)c4ncccc4Cl)CC3)nc2)c2c(C#N)cnn2c1
Out: 1
